Data provenance is PubChem BioAssay AID2165.

molecular target: Tyrosine-protein kinase JAK2 (Homo sapiens); assay: JAK2V617F kinase, IRF1 reporter and Ba/F3 cytotoxicity panel, late-stage follow-up, HEL and Ba/F3 cells (AID 2165); conditions: JAK2V617F
The source made the active and inactive calls. Rule as the data show it: active = IC50 below about 9 µM; inactive = the rest.
QUANTITY: IC50

                                    molecule                               measured_on         test_result
 0  COc1ccc(Cl)cc1NC(=O)NC(C)c1ccncc1 (stereo not given)  Tyrosine-protein kinase JAK2 (Homo sapiens)  > 40 µM (inactive)
 1           COCCOc1cc2nc[nH]c(=O)c2cc1OCCOC  Tyrosine-protein kinase JAK2 (Homo sapiens)  > 40 µM (inactive)
 2  CCC(C)Nc1ncnc2cc(OC)c(OC)cc12 (stereo not given)  Tyrosine-protein kinase JAK2 (Homo sapiens)             1.79 µM
 3      COc1cc2ncnc(Nc3ccc(O)c(Br)c3)c2cc1OC  Tyrosine-protein kinase JAK2 (Homo sapiens)             30.3 µM
 4  Cc1[nH]c(=O)c(C(=O)C=Cc2cccc(Br)c2)c2c1CCCC2  Tyrosine-protein kinase JAK2 (Homo sapiens)             0.55 µM
 5         COc1cc2ncnc(Nc3cccc(Cl)c3)c2cc1OC  Tyrosine-protein kinase JAK2 (Homo sapiens)  > 40 µM (inactive)
 6         Cc1cccc(OCC(=O)Nc2ccc(C)c(C)c2)c1  Tyrosine-protein kinase JAK2 (Homo sapiens)  > 40 µM (inactive)
 7        Cc1cccc(OCC(=O)Nc2cc(C)c(C)cc2O)c1  Tyrosine-protein kinase JAK2 (Homo sapiens)  > 40 µM (inactive)
 8          COc1ccc(OCC(=O)Nc2cc(C)ccc2O)cc1  Tyrosine-protein kinase JAK2 (Homo sapiens)              3.4 µM
 9  CCc1cccc(Nc2ncnc3cc(OCCOC)c(OCCOC)cc23)c1  Tyrosine-protein kinase JAK2 (Homo sapiens)  > 40 µM (inactive)
10  COCCOc1cc2ncnc(Nc3cccc(C#Cc4ccc(-c5ccccc5)cc4)c3)c2cc1OCCOC  Tyrosine-protein kinase JAK2 (Homo sapiens)             3.81 µM
11  Cc1ccc(O)c(NC(=O)COc2ccc(C3CCCCC3)cc2)c1  Tyrosine-protein kinase JAK2 (Homo sapiens)  > 40 µM (inactive)
12   COc1cc(C=C(C#N)C(N)=O)cc(CSc2ccccc2)c1O  Tyrosine-protein kinase JAK2 (Homo sapiens)  > 40 µM (inactive)
13        Cc1ccc(O)c(NC(=O)COc2ccc(Cl)cc2)c1  Tyrosine-protein kinase JAK2 (Homo sapiens)             1.51 µM
14         Cc1ccc(O)c(NC(=O)COc2ccc(F)cc2)c1  Tyrosine-protein kinase JAK2 (Homo sapiens)             21.8 µM
15         Cc1ccc(O)c(NC(=O)COc2ccc(I)cc2)c1  Tyrosine-protein kinase JAK2 (Homo sapiens)           0.0268 µM
16         COc1cc2ncnc(Nc3cccc(Br)c3)c2cc1OC  Tyrosine-protein kinase JAK2 (Homo sapiens)             4.94 µM
17           Cc1ccc(O)c(NC(=O)COc2ccccc2C)c1  Tyrosine-protein kinase JAK2 (Homo sapiens)  > 40 µM (inactive)
18        Cc1ccc(O)c(NC(=O)COc2ccc(Br)cc2)c1  Tyrosine-protein kinase JAK2 (Homo sapiens)           0.0327 µM
19  CCS(=O)(=O)c1ccc(O)c(NC(=O)COc2cccc(C)c2)c1  Tyrosine-protein kinase JAK2 (Homo sapiens)  > 40 µM (inactive)
20  Cc1[nH]c(=O)c(C(=O)C=Cc2ccc(Cl)cc2)c2c1CCCC2  Tyrosine-protein kinase JAK2 (Homo sapiens)             2.64 µM
21            Cc1cccc(OCC(=O)Nc2cccc(O)c2)c1  Tyrosine-protein kinase JAK2 (Homo sapiens)  > 40 µM (inactive)
22            Cc1cccc(NC(=O)COc2cccc(C)c2)c1  Tyrosine-protein kinase JAK2 (Homo sapiens)  > 40 µM (inactive)
23         Cc1cc2ncc(-c3ccc(O)c(O)c3)nc2cc1C  Tyrosine-protein kinase JAK2 (Homo sapiens)             0.84 µM
24  O=C(C=Cc1ccccc1F)c1c(-c2ccccc2)c2ccccc2[nH]c1=O  Tyrosine-protein kinase JAK2 (Homo sapiens)             0.39 µM
